Molecular target: HLA-A*68:02
Assay: IEDB peptide-MHC binding, purified MHC/direct/fluorescence; filed as Kd, often an IC50 or EC50 that approximates it; bounds were set here for any values at or beyond the usual limits of such assays
Details: source organism: Orthohantavirus tulaense
measured property: Kd

[Q] Entry `SSLRYGNVL` needs its Kd filled in; supply it.
[A] ≥ 20 µM

---

Target: HLA-A*02:06
Experiment: IEDB peptide-MHC binding, purified MHC/competitive/radioactivity; filed as Kd, often an IC50 or EC50 that approximates it; bounds were set here for any values at or beyond the usual limits of such assays
Conditions: source organism: Hepacivirus hominis
measured property: Kd

[Q] Entry `RDWAHNSL` needs its Kd filled in; supply it.
[A] ≥ 55.7 µM

---

Target: HLA-B*39:01
Assay: IEDB peptide-MHC binding, purified MHC/competitive/fluorescence; filed as Kd, often an IC50 or EC50 that approximates it; bounds were set here for any values at or beyond the usual limits of such assays
Settings: source organism: Rickettsia sibirica 246
pKd: −log10 of the molar value.
measured property: pKd

[Q] Entry `SVANIDRIK` needs its pKd filled in; supply it.
[A] ≤ 4.70

---

Biological target: HLA-B*40:01
Experiment: IEDB peptide-MHC binding, purified MHC/competitive/radioactivity; filed as Kd, often an IC50 or EC50 that approximates it; bounds were set here for any values at or beyond the usual limits of such assays
Settings: source organism: Lymphocytic choriomeningitis virus (strain Armstrong)
measured property: Kd

[Q] Entry `REPVDQKQF` needs its Kd filled in; supply it.
[A] ≥ 40.5 µM

---

Target: HLA-B*45:01
Assay: IEDB peptide-MHC binding, purified MHC/competitive/radioactivity; filed as Kd, often an IC50 or EC50 that approximates it; bounds were set here for any values at or beyond the usual limits of such assays
Settings: source organism: Mammarenavirus lassaense
measured property: Kd (nM)
Form entry: value (nM) — number only.

[Q] Entry `IEEIMNIVLI` needs its Kd filled in; supply it.
[A] 1300

---

Target: HLA-B*40:01
Experiment: IEDB peptide-MHC binding, purified MHC/direct/fluorescence; filed as Kd, often an IC50 or EC50 that approximates it; bounds were set here for any values at or beyond the usual limits of such assays
Conditions: source organism: Rickettsia prowazekii
pKd: −log10 of the molar value.
measured property: pKd

[Q] Entry `VVNYDNSTK` needs its pKd filled in; supply it.
[A] ≤ 4.70

---

Molecular target: HLA-A*02:01
Assay: IEDB peptide-MHC binding, purified MHC/direct/fluorescence; filed as Kd, often an IC50 or EC50 that approximates it; bounds were set here for any values at or beyond the usual limits of such assays
Settings: source organism: Giardia lamblia ATCC 50803
pKd: −log10 of the molar value.
measured property: pKd

[Q] Entry `LPVFATIGL` needs its pKd filled in; supply it.
[A] 5.12

[Q] Entry `RPRGHREFC` needs its pKd filled in; supply it.
[A] ≤ 4.70

[Q] Entry `SVKERGPAY` needs its pKd filled in; supply it.
[A] ≤ 4.70

---

Biological target: HLA-B*46:01
Assay: IEDB peptide-MHC binding, purified MHC/direct/fluorescence; filed as Kd, often an IC50 or EC50 that approximates it; bounds were set here for any values at or beyond the usual limits of such assays
Details: source organism: Lassa virus Josiah
pKd: −log10 of the molar value.
measured property: pKd

[Q] Entry `NHYLCLNCL` needs its pKd filled in; supply it.
[A] ≤ 4.70
